Value source: ChEMBL document CHEMBL6109116

Field: pKi. Provide a value for each of the molecules that follow.
molecular target: Mu-type opioid receptor (Rattus norvegicus, UniProt P33535); assay: Displacement of [3H]-DAMGO from rat cortical membrane MOR assessed as inhibition constant incubated for 2 hrs by Wallac Betaplate liquid scintillation counting analysis; format: cell membranes, Cortex
Sequence (P33535 whole entry): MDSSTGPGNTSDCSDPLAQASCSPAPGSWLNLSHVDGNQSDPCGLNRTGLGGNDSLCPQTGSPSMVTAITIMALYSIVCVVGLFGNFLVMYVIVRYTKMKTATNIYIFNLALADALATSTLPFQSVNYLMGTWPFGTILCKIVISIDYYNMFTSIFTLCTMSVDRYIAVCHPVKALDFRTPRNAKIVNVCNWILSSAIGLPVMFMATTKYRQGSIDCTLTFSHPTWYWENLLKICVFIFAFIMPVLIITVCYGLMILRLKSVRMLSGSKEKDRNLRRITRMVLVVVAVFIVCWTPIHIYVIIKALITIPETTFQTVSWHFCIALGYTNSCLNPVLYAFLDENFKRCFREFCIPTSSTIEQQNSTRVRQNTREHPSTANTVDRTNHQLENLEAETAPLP
Numbers only, as −log10 of the molar value.

>  <smi>
CC(C)C[C@H]1CN2C(=CC3=NC[C@H](CCN(C)C)N3C[C@@H]2Cc2ccc(O)cc2)N1CCc1ccccc1

>  <endpoint>
pKi

>  <numeric.readout>
6.67

$$$$

Please give pKi, item by item, for the list that follows.
1. CC(C)C[C@H]1CN=C2C=C3N(CCN4CCOCC4)[C@@H](Cc4ccc(O)cc4)CN3[C@@H](Cc3ccc(O)cc3)CN21
2. CC(C)[C@H]1CN=C2C=C3N(CCc4ccccc4)[C@@H](CCN(C)C)CN3[C@@H](Cc3ccc(O)cc3)CN21

Return:
6.97
7.47
